This collection of values is drawn from patent US11603355B2.

- test system: NaV1.7 (Homo sapiens)
- Construct: expressed in transfected cells; host or cells: HEK293 (tetracycline-inducible)
- Sequence (Q15858 whole entry): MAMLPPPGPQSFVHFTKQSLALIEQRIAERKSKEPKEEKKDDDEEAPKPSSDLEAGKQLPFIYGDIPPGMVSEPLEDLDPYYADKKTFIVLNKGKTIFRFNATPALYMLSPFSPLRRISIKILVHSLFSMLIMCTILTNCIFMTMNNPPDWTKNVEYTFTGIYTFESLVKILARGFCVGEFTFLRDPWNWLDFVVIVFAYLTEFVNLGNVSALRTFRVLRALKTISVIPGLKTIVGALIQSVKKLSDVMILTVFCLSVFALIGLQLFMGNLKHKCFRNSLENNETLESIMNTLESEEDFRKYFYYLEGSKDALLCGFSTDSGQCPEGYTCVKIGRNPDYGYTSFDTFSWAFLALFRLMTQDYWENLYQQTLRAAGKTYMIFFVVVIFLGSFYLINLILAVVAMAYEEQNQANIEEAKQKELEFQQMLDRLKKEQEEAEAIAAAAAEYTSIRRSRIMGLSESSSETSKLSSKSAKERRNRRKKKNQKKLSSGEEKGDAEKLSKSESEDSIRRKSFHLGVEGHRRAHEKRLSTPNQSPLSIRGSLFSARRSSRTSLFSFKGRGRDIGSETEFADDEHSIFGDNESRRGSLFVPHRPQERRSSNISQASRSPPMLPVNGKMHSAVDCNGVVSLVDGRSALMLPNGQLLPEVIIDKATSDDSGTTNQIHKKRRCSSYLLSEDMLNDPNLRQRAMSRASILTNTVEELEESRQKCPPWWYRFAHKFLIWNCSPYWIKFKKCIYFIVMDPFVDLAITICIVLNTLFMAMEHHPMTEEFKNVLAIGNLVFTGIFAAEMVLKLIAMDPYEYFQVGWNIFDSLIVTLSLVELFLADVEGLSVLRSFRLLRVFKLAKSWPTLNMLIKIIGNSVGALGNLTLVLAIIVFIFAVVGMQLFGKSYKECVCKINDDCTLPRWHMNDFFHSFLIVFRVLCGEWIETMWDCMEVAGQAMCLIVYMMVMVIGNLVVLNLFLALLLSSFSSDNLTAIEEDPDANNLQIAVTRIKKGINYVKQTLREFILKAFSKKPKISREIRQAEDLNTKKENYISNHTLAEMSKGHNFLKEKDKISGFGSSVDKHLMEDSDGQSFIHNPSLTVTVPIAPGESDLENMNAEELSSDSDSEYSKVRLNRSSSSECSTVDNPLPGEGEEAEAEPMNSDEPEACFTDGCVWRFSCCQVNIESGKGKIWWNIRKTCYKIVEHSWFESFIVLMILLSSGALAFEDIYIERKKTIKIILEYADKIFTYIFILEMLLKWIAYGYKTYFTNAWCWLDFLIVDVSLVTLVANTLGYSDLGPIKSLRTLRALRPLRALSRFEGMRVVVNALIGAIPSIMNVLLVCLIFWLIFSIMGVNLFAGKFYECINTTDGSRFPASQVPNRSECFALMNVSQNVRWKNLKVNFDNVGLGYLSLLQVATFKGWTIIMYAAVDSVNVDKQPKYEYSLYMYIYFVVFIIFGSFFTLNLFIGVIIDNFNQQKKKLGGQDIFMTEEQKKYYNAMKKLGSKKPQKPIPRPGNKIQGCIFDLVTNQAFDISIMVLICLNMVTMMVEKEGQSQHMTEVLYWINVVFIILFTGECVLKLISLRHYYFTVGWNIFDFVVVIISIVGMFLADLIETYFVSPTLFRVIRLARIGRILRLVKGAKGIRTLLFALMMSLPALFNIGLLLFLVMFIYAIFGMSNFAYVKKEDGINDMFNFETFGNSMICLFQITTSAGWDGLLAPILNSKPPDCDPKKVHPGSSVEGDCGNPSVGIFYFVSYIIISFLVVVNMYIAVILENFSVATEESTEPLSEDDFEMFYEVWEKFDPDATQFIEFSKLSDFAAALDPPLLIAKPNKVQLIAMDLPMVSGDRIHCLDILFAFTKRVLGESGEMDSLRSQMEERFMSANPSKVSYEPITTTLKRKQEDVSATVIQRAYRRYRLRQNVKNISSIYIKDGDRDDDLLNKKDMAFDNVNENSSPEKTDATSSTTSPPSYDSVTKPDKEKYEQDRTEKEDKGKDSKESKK
- assay method text: Manual patch clamp, internal block of NaV1.7 current
- Assay type: cell-based
- experimental setup: % inhibition at 10 μM test concentration, compound in internal solution, HEK293 cells, read-out: Nav1.7 Intracellular Inhibition
readout: inhibition at 10 µM

The cases that follow already have their inhibition at 10 µM on record.
CCC(C(=O)Nc1c(C)cccc1C)[N+]1(Cc2ccccc2OC)CCCCC1 (stereo not drawn) [Compound 24A]    > 95%
Cc1cccc(C)c1NC(=O)C[N+](C)(C)Cc1ccccc1    40 to 70%
CCc1ccc(C[N+]2(C(CC)C(=O)Nc3c(C)cccc3C)CCCCC2)cc1 (stereo not drawn) [Compound 19A]    40 to 70%
CCCCNC(=O)C1CCC[N+](CC(=O)Nc2c(C)cccc2C)(Cc2ccccc2)C1.[Br-] (stereo not drawn) [Compound 59A]    70 to 95%
CCC(C(=O)Nc1c(C)cccc1C)[N+]1(Cc2ccccc2)CCCCCC1.[Br-] (stereo not drawn) [Compound 30A]    > 95%
Cc1cccc(C)c1NC(=O)C[N+]1(Cc2ccccc2)CCCCC1    70 to 95%
CCC(C(=O)Nc1c(C)cccc1C)[N+]1(Cc2cnc(C)s2)CCCCC1 (stereo not drawn) [Compound 25A]    40 to 70%
Cc1cccc(C)c1NC(=O)C[N+]1(Cc2ccccc2)CCCCCC1.[Br-]    > 95%

We next turn to a different compound, shown below.
Input line: Need inhibition at 10 µM, item CCC(C(=O)Nc1c(C)cccc1C)[N+]1(Cc2cccc(C#N)c2)CCCCC1 (stereo not drawn) [Compound 14A]
Output line: 70 to 95%
